Data origin, for the record: patent US20260166039A1

- experimental_target: Wee1 kinase domain (Homo sapiens, UniProt P30291)
- Construct: Wee1 kinase domain was purchased from Carna (catalog #05-177); purchased Carna 05-177
- Sequence (P30291 299-569 limits assumed): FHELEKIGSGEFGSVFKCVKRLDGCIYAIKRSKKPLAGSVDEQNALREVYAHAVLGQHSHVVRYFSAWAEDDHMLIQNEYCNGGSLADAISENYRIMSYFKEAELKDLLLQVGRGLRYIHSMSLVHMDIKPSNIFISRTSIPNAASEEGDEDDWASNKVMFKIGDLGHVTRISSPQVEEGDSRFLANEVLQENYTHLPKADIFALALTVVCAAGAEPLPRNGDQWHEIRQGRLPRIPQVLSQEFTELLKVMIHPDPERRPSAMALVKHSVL
- protocol: Wee1 Kinase Biochemical Assay (ADP-Glo)
- condition_details: Wee1 kinase domain, 15 uM ATP, ADP-Glo
pIC50: −log10 of the molar value.
measured_parameter: pIC50

Some solved entries appear below for comparison.
Q: I'd like to know its pIC50. The compound in question is CN1CCC[C@H]1c1ccc(Nc2ncc3c(n2)N(c2cccc(N=S(C)(C)=O)n2)[C@@H]2CC(C)(C)OC[C@]32C)cn1 (single isomer, unassigned)
A: > 8.00

Q: I'd like to know its pIC50. The compound in question is C[C@H]1COC(=O)N1c1cccc(N2c3nc(Nc4ccc(N5CCNCC5)cc4)ncc3[C@@]3(C)COC(C)(C)C[C@@H]23)n1 (single isomer, unassigned)
A: > 8.00

Q: I'd like to know its pIC50. The compound in question is CC1(C)C[C@H]2N(c3cccc(N=S(C)(C)=O)n3)c3nc(Nc4ccn(C5CCOCC5)c(=O)c4)ncc3[C@@]2(C)CO1 (single isomer, unassigned)
A: > 8.00

Q: I'd like to know its pIC50. The compound in question is CC1(C)C[C@H]2N(c3cccc(N=S(C)(C)=O)n3)c3nc(Nc4cn5ccnc5cn4)ncc3[C@@]2(C)CO1 (single isomer, unassigned)
A: 7.00 to 8.00

Q: I'd like to know its pIC50. The compound in question is Cc1ncc(Nc2ncc3c(n2)N(c2cccc(N=S(C)(C)=O)n2)[C@@H]2CC(C)(C)OC[C@]32C)cn1 (single isomer, unassigned)
A: > 8.00

More entries:
Q: I'd like to know its pIC50. The compound in question is C[C@H]1COC(=O)N1c1cccc(N2c3nc(Nc4ccc(O[C@H]5CCN(C)C5)cc4)ncc3[C@]3(C)COC(C)(C)C[C@H]23)n1 (single isomer, unassigned)
A: 7.00 to 8.00

Q: I'd like to know its pIC50. The compound in question is CC1(C)C[C@@H]2N(c3cccc(N=S(C)(C)=O)n3)c3nc(Nc4ccc([C@H]5CCNC5)cc4)ncc3[C@]2(C)CO1 (single isomer, unassigned)
A: 7.00 to 8.00

###

- experimental_target: Wee1 kinase domain (Homo sapiens, UniProt P30291)
- Construct: Wee1 kinase domain was purchased from Carna (catalog #05-177); purchased Carna 05-177
- protocol: Wee1 Kinase Biochemical Assay (ADP-Glo)
- condition_details: Wee1 kinase domain, 15 uM ATP, ADP-Glo
pIC50: −log10 of the molar value.
measured_parameter: pIC50

Some solved entries appear below for comparison.
Q: I'd like to know its pIC50. The compound in question is CC1(C)C[C@H]2N(c3cccc(N=S(C)(C)=O)n3)c3nc(Nc4ccc(C5CNC5)cc4)ncc3[C@@]2(C)CO1 (single isomer, unassigned) [Example 163]
A: > 8.00

Q: I'd like to know its pIC50. The compound in question is CN1CCCC(n2cc(Nc3ncc4c(n3)N(c3cccc(N=S(C)(C)=O)n3)C3CC(C)(C)OCC43C)cn2)C1 (single isomer, unassigned) [Example 202]
A: > 8.00

Q: I'd like to know its pIC50. The compound in question is CNCc1cccc(N2c3nc(Nc4ccc(N5C6CCC5COC6)cc4)ncc3[C@@]3(C)COC(C)(C)C[C@@H]23)n1 (single isomer, unassigned) [Example 87]
A: > 8.00

More entries:
Q: I'd like to know its pIC50. The compound in question is Cc1cc(Nc2ncc3c(n2)N(c2cccc(N4C(=O)OC[C@@H]4C)n2)[C@H]2CC(C)(C)OC[C@@]32C)ccc1[C@@H]1CCNC1 (single isomer, unassigned) [Example 268]
A: 7.00 to 8.00

Q: I'd like to know its pIC50. The compound in question is Cc1cc(Nc2ncc3c(n2)N(c2cccc(N4C(=O)OC[C@@H]4C)n2)[C@H]2CC(C)(C)OC[C@@]32C)ccc1N1C[C@@H]2C[C@H]1CN2C (single isomer, unassigned) [Example 294]
A: 7.00 to 8.00

Q: I'd like to know its pIC50. The compound in question is CC1(C)C[C@H]2N(c3cccc(N=S(C)(C)=O)n3)c3nc(Nc4cnccn4)ncc3[C@@]2(C)CO1 (single isomer, unassigned) [Example 366]
A: > 8.00

Q: I'd like to know its pIC50. The compound in question is CN1CCC[C@@H]1c1cccc(N2c3nc(Nc4ccn(C5CCOCC5)c(=O)c4)ncc3[C@@]3(C)COC(C)(C)C[C@@H]23)n1 (single isomer, unassigned) [Example 395]
A: > 8.00

Q: I'd like to know its pIC50. The compound in question is CC1(C)C[C@H]2N(c3cccc(N=S(C)(C)=O)n3)c3nc(Nc4ccn([C@@H]5CCOC5)c(=O)c4)ncc3[C@@]2(C)CO1 (single isomer, unassigned) [Example 375]
A: > 8.00

Q: I'd like to know its pIC50. The compound in question is CN1Cc2cc(Nc3ncc4c(n3)N(c3cccc(N=S(C)(C)=O)n3)[C@@H]3CC(C)(C)OC[C@]43C)ccc2C2(CC2)C1 (single isomer, unassigned) [Example 107]
A: > 8.00

Q: I'd like to know its pIC50. The compound in question is CNCc1cccc(N2c3nc(Nc4ccc(N5C(=O)CC[C@H]5C)cc4)ncc3[C@]3(C)COC(C)(C)C[C@H]23)n1 (single isomer, unassigned) [Example 29]
A: 7.00 to 8.00

Q: I'd like to know its pIC50. The compound in question is CN1CCC(c2ccc(Nc3ncc4c(n3)N(c3cccc(N=S(C)(C)=O)n3)[C@H]3CC(C)(C)OC[C@@]43C)cc2F)CC1 (single isomer, unassigned) [Example 178]
A: 6.00 to 7.00

Q: I'd like to know its pIC50. The compound in question is C[C@H]1COC(=O)N1c1cccc(N2c3nc(Nc4ccc(N5CCN(C)CC5)nn4)ncc3[C@@]3(C)COC(C)(C)C[C@@H]23)n1 [Example 249]
A: > 8.00

Q: I'd like to know its pIC50. The compound in question is C[C@H]1COC(=O)N1c1cccc(N2c3nc(Nc4ccc(C5CCN(C)CC5)nc4)ncc3[C@@]3(C)COC(C)(C)C[C@@H]23)n1 (single isomer, unassigned) [Example 297]
A: > 8.00

Q: I'd like to know its pIC50. The compound in question is CN1CCC(n2cc(Nc3ncc4c(n3)N(c3cccc(C(C)(C)O)n3)[C@H]3CC(C)(C)OC[C@@]43C)cn2)CC1 (single isomer, unassigned) [Example 12]
A: 6.00 to 7.00

Q: I'd like to know its pIC50. The compound in question is Cc1cc(Nc2ncc3c(n2)N(c2cccc(C(C)(C)O)n2)[C@@H]2CC(C)(C)OC[C@]32C)ccc1C1CCN(C)CC1 (single isomer, unassigned) [Example 8]
A: > 8.00

###

- experimental_target: Wee1 kinase domain (Homo sapiens)
- Construct: Wee1 kinase domain was purchased from Carna (catalog #05-177); purchased Carna 05-177
- protocol: Wee1 Kinase Biochemical Assay (ADP-Glo)
- condition_details: class symbols; 1 nM Wee1 enzyme, 15 uM ATP, 4 hours at 25° C.
pIC50: −log10 of the molar value.
pIC50: recorded values

Q: Query pIC50 on Wee1 kinase domain (Homo sapiens) for CN=[S@](C)(=O)c1cccc(N2c3nc(Nc4ccc(N5CCN(C)CC5)cc4)ncc3[C@@]3(C)COC(C)(C)C[C@@H]23)n1 (single isomer, unassigned)
A: > 8.00

###

- experimental_target: Wee1 kinase domain (Homo sapiens, UniProt P30291)
- Construct: Wee1 kinase domain was purchased from Carna (catalog #05-177); purchased Carna 05-177
- protocol: Wee1 Kinase Biochemical Assay (ADP-Glo)
- condition_details: Wee1 kinase domain, 15 uM ATP, ADP-Glo
pIC50: −log10 of the molar value.
pIC50: recorded values

Some solved entries appear below for comparison.
Q: I'd like to know its pIC50. The compound in question is CNC(=O)c1ccc(Nc2ncc3c(n2)N(c2cccc(N=S(C)(C)=O)n2)[C@@H]2CC(C)(C)OC[C@]32C)cc1 (single isomer, unassigned)
A: > 8.00

Q: I'd like to know its pIC50. The compound in question is CN1CC(n2cc(Nc3ncc4c(n3)N(c3cccc(N=S(C)(C)=O)n3)[C@H]3CC(C)(C)OC[C@@]43C)cn2)C1 (single isomer, unassigned)
A: 7.00 to 8.00

Q: I'd like to know its pIC50. The compound in question is CNCc1cccc(N2c3nc(Nc4ccc([C@@]5(C)CCN(C)C5=O)cc4)ncc3[C@]3(C)COC(C)(C)C[C@H]23)n1 (single isomer, unassigned)
A: 6.00 to 7.00

Q: I'd like to know its pIC50. The compound in question is CNCc1cccc(N2c3nc(Nc4ccc5c(c4)C(=O)N(C)C5)ncc3[C@]3(C)COC(C)(C)C[C@H]23)n1 (single isomer, unassigned)
A: 6.00 to 7.00

Q: I'd like to know its pIC50. The compound in question is CNCc1cccc(N2c3nc(Nc4ccc([C@@H]5CNC(=O)C5)cc4)ncc3[C@]3(C)COC(C)(C)C[C@H]23)n1 (single isomer, unassigned)
A: 7.00 to 8.00

Q: I'd like to know its pIC50. The compound in question is CN1CCC[C@H]1c1ccc(Nc2ncc3c(n2)N(c2cccc(N=S(C)(C)=O)n2)[C@@H]2CC(C)(C)OC[C@]32C)cc1 (single isomer, unassigned)
A: > 8.00

More entries:
Q: I'd like to know its pIC50. The compound in question is CN1CCC(c2ccc(Nc3ncc4c(n3)N(c3cccc(N=S(C)(C)=O)n3)[C@@H]3CC(C)(C)OC[C@]43C)cc2F)CC1 (single isomer, unassigned)
A: > 8.00

Q: I'd like to know its pIC50. The compound in question is C[C@H]1COC(=O)N1c1cccc(N2c3nc(Nc4ccc([C@@H]5CCN(C)C5)cc4)ncc3[C@@]3(C)COC(C)(C)C[C@@H]23)n1 (single isomer, unassigned)
A: > 8.00
